Field: protein stability index. Provide a value for each of the sequences that follow.
# PROTOCOL TEXT: protein stability index of a GFP-peptide fusion (GPS, HEK-293T) (PSI 1-6); higher = more stable;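 note: 24-mer peptide tiles fused after GFP, lentivirally expressed, FACS-sorted into six equal bins by GFP/DsRed ratio, decoded by Illumina sequencing, PSI is the read-weighted mean bin number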
# CONDITIONS USED: treatment: DMSO; c terminus: a fixed tail appended
Give the figure by itself; no unit, no explanation.

Data request, read-out protein stability index, for CRCKNSNTVYCKLESCPSRGQGKP [SPRY1]
3.66

Data request, read-out protein stability index, for NKTGVSPYSKTLVLQTSEGKALQQ [TRIM9]
4.19

Data request, read-out protein stability index, for KCAEVIIPLLSSVNVSDRGGRTAL [ANKRD44]
2.38

Data request, read-out protein stability index, for KGKLFTWNILKTIALGQMLSLCIC [SLC35F2]
2.62

Data request, read-out protein stability index, for RSLSPSLSSVDMRMTSSPSSIPRR [RAD54B]
4.66

Data request, read-out protein stability index, for NVKSEKVYTRHGVPISVTGIAQVK [FLOT1]
3.52

Data request, read-out protein stability index, for KRIAHFDLKPENIMLLDKNVPNPR [DAPK3]
3.68

Data request, read-out protein stability index, for AKPEALSSPKFREEAAFPGRRVNA [ELOA2]
4.48

Data request, read-out protein stability index, for DKILALVPETIHDELQQSFQKSHN [PRIM1]
3.85

Data request, read-out protein stability index, for VLVKDNGLGCKDLDLIFHVALPTE [TENT5C]
2.58

Data request, read-out protein stability index, for CHSFAAAADGPTVCCNPYHFSRLC [SMAD6]
2.4

Data request, read-out protein stability index, for LLHLHQTAHADEFDCPSELQHTQE [STEAP1]
4.66

Data request, read-out protein stability index, for LHLPIMGVVMKVRIPTCHDKPGTT [DENND6A]
2.24

---

# PROTOCOL TEXT: protein stability index of a GFP-peptide fusion (GPS, HEK-293T) (PSI 1-6); higher = more stable
# CONDITIONS USED: treatment: DMSO; c terminus: a fixed tail appended
protein stability index vs 3: at or above is satisfied, below is not satisfied.

Please check the record AEALFDFTGNSKLELNFKAGDVIF [NCF4] and state if its protein stability index is at or above 3.
not satisfied

Please check the record SPRDEYKPLDLSDSTLSYTETEAT [SMAD6] and state if its protein stability index is at or above 3.
satisfied

Please check the record HGSQGTYSNTKENGINGELTSADR [MAP2] and state if its protein stability index is at or above 3.
satisfied

Please check the record IQLKSVADGQESTPPTPAPTSGIV [WASL] and state if its protein stability index is at or above 3.
satisfied

Please check the record EEKPQENKTWREQYLRLPDAPEQR [ELOA2] and state if its protein stability index is at or above 3.
satisfied

Please check the record MAHSKTRTNDGKITYPPGVKEISD [PDS5B] and state if its protein stability index is at or above 3.
satisfied

Please check the record CAHCRAHLANHDDLISKSFQGSQG [YPEL3] and state if its protein stability index is at or above 3.
not satisfied

Please check the record RCRPRSLIDYKSYMDTKLLVARFL [FAM189A2] and state if its protein stability index is at or above 3.
not satisfied

Please check the record SIGALISKAHLEKVRSYVKRALAE [ALDH8A1] and state if its protein stability index is at or above 3.
not satisfied

Please check the record KENEMMKSHVMDQAINNAINYLGA [IKZF1] and state if its protein stability index is at or above 3.
satisfied

Please check the record DVQLGDIILTATDGLFDNMPDYMI [PPTC7] and state if its protein stability index is at or above 3.
not satisfied

Please check the record LAAKERHCGELKRRLGLSTLGELK [TPD52L2] and state if its protein stability index is at or above 3.
not satisfied
